pIC50: −log10 of the molar value.
Literature compilation of pIC50 measurements on UniProt Q8IXJ6.
measured_endpoint: pIC50

compound: N=C(Nc1ccccc1)SC1CC(=O)N(c2ccc(C(=O)O)cc2)C1=O (racemic)
pIC50: 2.76

A: C[C@H](NC(=O)/C=C/c1ccc(O)cc1)C(=O)NCCc1c[nH]c2ccccc12
B: NC(=O)C1CN(Cc2cccc([N+](=O)[O-])c2)c2ccccc2O1 (stereo not given)
Field: lower recorded pIC50 (choose A or B ) Identify your pick by its label.
A

====

Below are IC50 values for NAD-dependent protein deacetylase sirtuin-2 (Homo sapiens) collected from several publications.
# target_of_assay: NAD-dependent protein deacetylase sirtuin-2 (Homo sapiens)
# Sequence (Q8IXJ6 whole entry): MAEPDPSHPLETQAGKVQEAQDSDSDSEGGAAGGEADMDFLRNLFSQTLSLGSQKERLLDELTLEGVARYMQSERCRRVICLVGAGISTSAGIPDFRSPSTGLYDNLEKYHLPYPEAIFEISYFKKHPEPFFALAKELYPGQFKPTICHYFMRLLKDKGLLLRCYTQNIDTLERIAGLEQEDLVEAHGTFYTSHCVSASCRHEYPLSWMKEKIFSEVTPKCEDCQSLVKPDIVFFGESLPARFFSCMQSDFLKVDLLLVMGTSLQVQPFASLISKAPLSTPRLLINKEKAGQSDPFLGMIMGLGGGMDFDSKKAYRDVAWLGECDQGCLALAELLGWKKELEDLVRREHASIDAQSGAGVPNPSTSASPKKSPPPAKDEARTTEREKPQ
measured_endpoint: IC50 (µM)

Solved cases (8 shown):
compound: NC(=O)c1cncc(Oc2cccc3ccccc23)c1
target_of_assay: NAD-dependent protein deacetylase sirtuin-2 (Homo sapiens)
measured_endpoint: IC50
assay_result: 7.57

compound: O=C1Nc2c(ccc(Cl)c2Cl)/C1=C/c1cc(Br)c(O)c(Br)c1
target_of_assay: NAD-dependent protein deacetylase sirtuin-2 (Homo sapiens)
measured_endpoint: IC50
assay_result: 28

compound: CCCCNC(=S)NCCCC[C@H](NC(=O)OCc1ccccc1)C(=O)N[C@@H](Cc1c[nH]c2ccccc12)C(=O)NC(C)C
target_of_assay: NAD-dependent protein deacetylase sirtuin-2 (Homo sapiens)
measured_endpoint: IC50
assay_result: 1.4

compound: CNC(=O)[C@H](C)NC(=O)[C@H](CCCCNC(C)=O)NC(=O)[C@H](C)NC(C)=O
target_of_assay: NAD-dependent protein deacetylase sirtuin-2 (Homo sapiens)
measured_endpoint: IC50
assay_result: 60

compound: Cc1ccc(C(=O)Nc2cccc3c(Oc4cncc(C(N)=O)c4)cccc23)cc1
target_of_assay: NAD-dependent protein deacetylase sirtuin-2 (Homo sapiens)
measured_endpoint: IC50
assay_result: 0.0774

compound: NC(=O)C1CN(Cc2ccccc2F)c2ccccc2O1 (stereo unspecified)
target_of_assay: NAD-dependent protein deacetylase sirtuin-2 (Homo sapiens)
measured_endpoint: IC50
assay_result: 35.4

compound: O=C(NNC(=O)c1nc(-c2cccc3ccccc23)no1)Nc1cccc(C(F)(F)F)c1
target_of_assay: NAD-dependent protein deacetylase sirtuin-2 (Homo sapiens)
measured_endpoint: IC50
assay_result: 257

compound: NC(=O)c1ccc[n+]([C@@H]2O[C@H](COP(=O)(O)OP(=O)(O)OC[C@H]3O[C@@H](n4cnc5c(N)ncnc54)[C@H](O)[C@@H]3O)[C@@H](O)[C@@H]2N)c1
target_of_assay: NAD-dependent protein deacetylase sirtuin-2 (Homo sapiens)
measured_endpoint: IC50
assay_result: 153

P: FC(F)(F)c1ccc(-c2noc(CCCBr)n2)cc1
Q: NC(=O)c1cncc(Sc2cccc3ccccc23)c1
Compare P and Q by numeric IC50 and name the larger one. # reply format: chosen label
Q
